biological target: human CYP11B2 (Homo sapiens); assay: G-402 cellular enzyme assay, human CYP11B2 (aldosterone release, HTRF); conditions: G-402 cells, 1 μM Deoxycorticosterone
Sequence (P19099 25-503): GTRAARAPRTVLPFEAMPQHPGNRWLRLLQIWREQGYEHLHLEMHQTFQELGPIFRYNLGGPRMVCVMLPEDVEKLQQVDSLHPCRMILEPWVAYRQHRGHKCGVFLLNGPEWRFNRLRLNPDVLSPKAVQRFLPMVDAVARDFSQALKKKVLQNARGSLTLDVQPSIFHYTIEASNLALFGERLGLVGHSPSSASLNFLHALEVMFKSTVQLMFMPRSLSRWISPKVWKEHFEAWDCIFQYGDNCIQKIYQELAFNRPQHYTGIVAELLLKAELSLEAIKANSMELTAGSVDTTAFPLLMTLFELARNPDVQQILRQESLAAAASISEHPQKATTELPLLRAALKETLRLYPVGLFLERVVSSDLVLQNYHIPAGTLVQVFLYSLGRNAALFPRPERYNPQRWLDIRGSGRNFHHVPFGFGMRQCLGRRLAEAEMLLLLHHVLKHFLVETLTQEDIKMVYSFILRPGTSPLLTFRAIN
PROPERTY: EC50 (nM)

COMPOUND	PROPERTY	OBSERVED RESULT
CC(C)(O)c1c(F)cncc1N1CCc2cc(Cl)ccc2C1=O	EC50	460
CCc1ccc(C(O)c2cncc(N3CCc4cc(Cl)ccc4C3=O)c2)cc1 (stereo not drawn)	EC50	210
CC1(C)c2cc(Cl)ccc2C(=O)N1c1cncc(C2CCCN(S(C)(=O)=O)C2)n1 (stereo not drawn)	EC50	66.9

---

Form field: EC50 (one value per entry).
biological target: UniProt:P19099; assay: G-402 cellular enzyme assay, human CYP11B2 (aldosterone release, HTRF); conditions: G-402 cells, 1 μM Deoxycorticosterone
PROPERTY: EC50 (nM)

MOLECULE	PROPERTY	OBSERVED RESULT
CC(NS(C)(=O)=O)c1cncc(N2CCc3cc(Cl)ccc3C2=O)c1 (stereo not drawn) [Example 276]	EC50	284
O=C1c2ccc(Cl)cc2CCN1c1cncc(-c2cc(F)cc(F)c2)c1 [Example 233]	EC50	271
O=C1c2ccc(Cl)cc2CCN1c1cncc(CO)c1 [Example 3]	EC50	96.5
O=C1c2ccc(Cl)cc2CCN1c1cncc2c([N+](=O)[O-])cccc12 [Example 287]	EC50	555
O=C1c2ccc(Cl)cc2CCN1c1cncc(C(O)c2cc(F)cc(F)c2)c1 (stereo not drawn) [Example 32]	EC50	46.8
O=C1c2ccc(Cl)cc2C(C2CC2)N1c1cncc(OC(F)F)c1 (stereo not drawn) [Example 302]	EC50	93.2
Cn1cc(Cc2cncc(N3CCc4cc(Cl)ccc4C3=O)c2)cn1 [Example 209]	EC50	0.9
CC(=O)N[C@@H]1CCCc2c1cncc2N1C(=O)c2ccc(Cl)cc2[C@H]1C (single isomer, unassigned) [Example 364]	EC50	130
O=C1c2ccc(Cl)cc2CCN1c1cncc(Cn2cccn2)c1 [Example 160]	EC50	36.1
O=C1c2ccc(Cl)cc2CCN1c1cncc(C(O)c2ccccc2)c1 (stereo not drawn) [Example 34]	EC50	31.6
CN1CCCC1CCOCc1cncc(N2CCc3cc(Cl)ccc3C2=O)c1 (stereo not drawn) [Example 196]	EC50	178
CCS(=O)(=O)NC1CCc2c1cncc2N1Cc2cc(Cl)ccc2C1=O (single isomer, unassigned) [Example 336]	EC50	949
COc1cncc(N2C(=O)c3ccc(Cl)cc3CC2C)c1 (stereo not drawn) [Example 85]	EC50	59.6
CC(=O)N1CC(Oc2cncc(N3C(=O)c4ccc(Cl)cc4C3(C)C)c2)C1 [Example 450]	EC50	122
O=C1c2ccc(Cl)cc2CCN1c1cncc(Cc2c(Cl)cccc2Cl)c1 [Example 214]	EC50	63.6
Cn1ccc2cncc(N3CCc4cc(Cl)ccc4C3=O)c21 [Example 65]	EC50	97.3
CCS(=O)(=O)NC1CCCc2c1cncc2N1Cc2cc(Cl)ccc2C1=O (racemic) [Example 315]	EC50	1050
CC(c1cncc(N2CCc3cc(Cl)ccc3C2=O)c1)N1CCCC1=O (stereo not drawn) [Example 274]	EC50	128
CNC(C)c1cncc(N2CCc3cc(Cl)ccc3C2=O)c1 (stereo not drawn) [Example 265]	EC50	437
CC(C)c1nccn1Cc1cncc(N2Cc3cc(Cl)ccc3C2=O)c1 [Example 109]	EC50	229
CC1(C)c2cc(Cl)ccc2C(=O)N1c1cncc(F)c1 [Example 129]	EC50	63.6
